B1: LINE1-full (parent)
chain: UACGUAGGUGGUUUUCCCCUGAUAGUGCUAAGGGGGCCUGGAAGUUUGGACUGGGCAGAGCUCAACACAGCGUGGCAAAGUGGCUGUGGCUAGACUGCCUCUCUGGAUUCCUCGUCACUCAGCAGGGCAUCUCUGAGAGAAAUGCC

Variants of: B1
Protocol Description: self-cleavage, relative activity (ratio to wild type); higher = more cleavage; in vitro, sequencing; the parent is a self-cleaving ribozyme

Mutation Notation | self-cleavage
C95U U119C | 0.22
U102C G106A | 1.19
G75A | 1.11
U39C G139U | 0.42
U108A C133A | 1.42
G10A A129U | 0.66
G8U A59G | 0.12
U91C U100C | 0.48
A59U A138U | 0.88
U29C G144A | 1.22
U109C A140G | 0.48
U12G A121C | 1.29
U12A A30U | 1.63
G54A A138G | 0.84
A121U A129G | 1.77
U52C G74U | 1.79
U47G U100A | 0.42
G114A U143A | 0.68
C28A U81C | 0.89
A65C G74U | 0.03
C37U U85C | 0.19
A78U A136C | 2.73
